- experimental.target: T1, TNFR1 (Homo sapiens, UniProt P19438)
- T1 chain: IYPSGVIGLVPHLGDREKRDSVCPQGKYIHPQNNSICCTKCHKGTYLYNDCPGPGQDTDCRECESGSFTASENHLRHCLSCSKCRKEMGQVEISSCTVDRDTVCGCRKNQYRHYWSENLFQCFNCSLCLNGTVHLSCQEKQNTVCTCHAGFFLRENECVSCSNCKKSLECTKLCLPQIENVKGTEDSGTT
- measurement.description: yeast display SC50
Examples of binders with documented apparent Kd (screen) follow.

binder: E7F (designed binder) SMEEEVFKAAKEYEKKKKEAIEKHLEKLKAKDKEAAERFLKELEEAAKEYAKDEAKTMSEEEAKRRAKKYKEKVLLSELSEEEQKEIKEAEEKLVRTILKYVEEAAK
readout.unit: nM
apparent Kd (screen): 20.2

binder: K18C (designed binder) SMEEEVEKAAKEYEKKKCEAIEKHLEKLKAKDKEAAERFLKELEEAAKEYAKDEAKTMSEEEAKRRAKKYKEKVLLSELSEEEQKEIKEAEEKLVRTILKYVEEAAK
readout.unit: nM
apparent Kd (screen): 0.869
